Recorded measurements of pKi, one per entry
- Test target: 5-hydroxytryptamine receptor 1A (Homo sapiens, UniProt P08908)
- Sequence (P08908 whole entry): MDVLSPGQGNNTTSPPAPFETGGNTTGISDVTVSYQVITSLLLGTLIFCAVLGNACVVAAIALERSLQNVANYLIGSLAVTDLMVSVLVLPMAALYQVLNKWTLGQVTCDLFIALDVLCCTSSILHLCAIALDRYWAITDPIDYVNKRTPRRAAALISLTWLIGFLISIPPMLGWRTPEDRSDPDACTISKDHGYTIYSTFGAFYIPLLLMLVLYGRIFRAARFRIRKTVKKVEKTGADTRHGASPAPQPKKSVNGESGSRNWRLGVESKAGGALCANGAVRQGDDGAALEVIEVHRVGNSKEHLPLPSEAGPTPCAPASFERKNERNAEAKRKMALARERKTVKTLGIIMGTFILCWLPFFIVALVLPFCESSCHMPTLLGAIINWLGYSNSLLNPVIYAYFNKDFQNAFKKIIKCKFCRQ
- Method notes: Binding affinity towards 5-hydroxytryptamine 1A receptor
pKi: −log10 of the molar value.
Measurement label: pKi

- COc1ccc2[nH]c3c(c2c1)CCN=C3C: < 5.00
- COc1ccc2c3c([nH]c2c1)CNCC3: < 5.00
- COc1ccc2c(c1)[nH]c1c(C)nccc12: < 5.00
- CC1=NCCc2c1[nH]c1ccccc21: < 5.78
